Task for the reader: assign each of the following compounds its reported CC50 at 24 h.
assay: Resazurin reduction cytotoxicity assay, Raw264.7; conditions: mouse, Raw264.7 macrophage cells
Numbers only, in µM.

The measured CC50 at 24 h associated with CC(C)=CCC[C@](C)(O)[C@@H]1CC=C(C)CC1 [α-bisabolol] reads 174

# batch: return CC50 at 24 h for each of the 3 compounds below
1. COc1cc2oc(-c3ccc(O)c(O)c3)cc(=O)c2c(O)c1OC [Cirsiliol]
2. C/C1=C\CC(C)(C)/C=C/C(=O)/C(C)=C/CC1 [Zerumbone]
3. C=Cc1c(C)c2cc3nc(c4c5[nH]c(cc6nc(cc1[nH]2)C(C)=C6CC)c(C)c5C(=O)[C@@H]4C(=O)OC)[C@@H](CCC(=O)O)[C@@H]3C [Pheophorbide A]

**A:**
1: 71.2; 2: 44.5; 3: 20.9
